# assaySummary: in vitro
# cond: human, microsomes
readout: half-life at 1 μM
Report field: quantity (unit follows the number).

## Task Name the reported half-life at 1 μM value associated with the compound Fc1ccc([C@@H]2CCNC[C@H]2COc2ccc3c(c2)OCO3)cc1 [Paroxetine, paroxetine, reference compound]
## Result 49 min

----------
# testTarget: UniProt P10635
# Sequence (P10635 whole entry): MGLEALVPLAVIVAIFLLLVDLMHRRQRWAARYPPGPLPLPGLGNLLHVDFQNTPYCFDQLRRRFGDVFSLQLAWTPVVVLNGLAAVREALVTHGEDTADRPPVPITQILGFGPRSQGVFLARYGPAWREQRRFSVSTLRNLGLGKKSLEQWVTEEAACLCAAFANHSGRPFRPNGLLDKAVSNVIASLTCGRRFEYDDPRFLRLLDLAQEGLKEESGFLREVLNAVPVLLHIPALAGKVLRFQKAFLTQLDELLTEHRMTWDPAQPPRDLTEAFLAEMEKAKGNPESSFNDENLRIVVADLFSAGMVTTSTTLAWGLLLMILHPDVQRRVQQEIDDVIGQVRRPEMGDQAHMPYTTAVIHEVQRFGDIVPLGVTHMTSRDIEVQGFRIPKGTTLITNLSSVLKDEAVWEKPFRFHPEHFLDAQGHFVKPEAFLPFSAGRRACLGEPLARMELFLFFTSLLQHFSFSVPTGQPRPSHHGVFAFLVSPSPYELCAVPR
# assaySummary: in vitro
# cond: human, microsomes
readout: KI (inactivation)

## Task # get_value(readout= KI (inactivation), system= UniProt P10635) for Fc1ccc([C@@H]2CCNC[C@H]2COc2ccc3c(c2)OCO3)cc1 [Paroxetine, paroxetine, reference compound]
## Result 1.96 µM

----------
# assaySummary: in vitro
# cond: rat, microsomes
readout: half-life at 1 μM (min)
One number for each entry, in min.

## Task Name the reported half-life at 1 μM value associated with the molecule Fc1ccc([C@@H]2CCNC[C@H]2COc2ccc3c(c2)OCO3)cc1 [Paroxetine, paroxetine, reference compound]
## Result 20.4
